- TEST DESCRIPTION: Absorption of nalidixic acid-albumin composition by gastrointestinal tract (oral, rat serum level)
- Assay type: in vivo, male rats of Wistar strain
- CONDITION DETAILS: 50 mg/kg in terms of nalidixic acid, satiety condition, read-out: time at which blood concentration of nalidixic acid reached the maximum
OBSERVED PROPERTY: Tmax

Kindly note the recorded Tmax for CCn1cc(C(=O)O)c(=O)c2ccc(C)nc21 , which is 3 h
